Origin of values: patent US5597832A

Reported Ki is given for each of the following molecules.
# SYSTEM_TESTED: dopamine D-2 receptor (Rattus norvegicus, UniProt P61169)
# Construct: Homogenized rat caudate was the source of the D-2 receptors; from tissue; host or cells: rat caudate homogenate
# Sequence (P61169 whole entry): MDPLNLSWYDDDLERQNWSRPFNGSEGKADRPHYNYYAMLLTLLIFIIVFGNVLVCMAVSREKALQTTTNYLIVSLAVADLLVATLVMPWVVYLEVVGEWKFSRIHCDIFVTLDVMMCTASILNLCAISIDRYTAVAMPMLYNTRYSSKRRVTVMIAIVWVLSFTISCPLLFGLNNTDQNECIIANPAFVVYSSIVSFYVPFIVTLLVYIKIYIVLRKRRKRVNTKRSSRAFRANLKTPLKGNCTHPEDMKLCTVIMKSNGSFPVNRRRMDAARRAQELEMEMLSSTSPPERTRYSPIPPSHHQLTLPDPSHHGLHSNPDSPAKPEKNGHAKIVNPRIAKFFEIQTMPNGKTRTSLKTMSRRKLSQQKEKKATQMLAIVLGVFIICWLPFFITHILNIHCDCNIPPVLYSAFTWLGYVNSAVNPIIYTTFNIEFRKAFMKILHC
# ASSAY_COMMENT: D-2 receptor competitive binding, [3H]-spiroperidol, homogenized rat caudate
# MEASUREMENT_CONTEXT: rat caudate, [3H]-spiroperidol; read-out: D-2 Ki
Structures can show the parent of a compound that is named as a salt.
Write the number in nM without appending the unit.

CCc1cc2c(o1)[C@@H]1c3cc(O)c(O)cc3CC[C@H]1NC2 (relative stereo) [Example 55, hydrochloride]; 368
CCCCCCc1cc2c(s1)CN[C@@H]1CCc3cc(O)c(O)cc3[C@@H]21 (relative stereo) [Example 38, TFA salt]; 2580

--- query ---
For CCc1cc2c(o1)CN[C@@H]1CCc3cc(O)c(O)cc3[C@@H]21 (relative stereo) [Example 40, hydrochloride] , what is its reported Ki?
480

* * *

# SYSTEM_TESTED: dopamine D-1 receptor (Rattus norvegicus, UniProt P18901)
# Sequence (P18901 whole entry): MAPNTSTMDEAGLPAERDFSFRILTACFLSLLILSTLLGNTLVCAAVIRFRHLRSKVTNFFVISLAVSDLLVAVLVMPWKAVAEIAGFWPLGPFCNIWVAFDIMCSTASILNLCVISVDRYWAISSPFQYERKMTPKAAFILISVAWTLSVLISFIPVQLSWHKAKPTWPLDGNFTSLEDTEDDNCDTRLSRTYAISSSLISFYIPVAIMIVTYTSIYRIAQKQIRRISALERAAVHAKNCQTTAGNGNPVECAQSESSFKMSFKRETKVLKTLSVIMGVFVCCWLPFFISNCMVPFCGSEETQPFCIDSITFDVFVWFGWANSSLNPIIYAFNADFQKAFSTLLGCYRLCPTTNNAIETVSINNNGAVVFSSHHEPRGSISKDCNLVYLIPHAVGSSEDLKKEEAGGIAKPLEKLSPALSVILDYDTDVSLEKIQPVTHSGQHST
# ASSAY_COMMENT: biochemical
Where a name gives a salt, the structure may show the parent alone.
molecules and their reported log10 of Ki
In our notation, the value equals log10 of Ki in µM.

CCCc1nc2c(s1)CN[C@@H]1CCc3cc(O)c(O)cc3[C@@H]21 (relative stereo) [Example 54, dihydrobromide]; -0.66

Could you tell me which log10 of Ki is on file for CC(C)(C)Cc1cc2c(s1)CN[C@H]1CCc3cc(O)c(O)cc3[C@H]21 (relative stereo) ?
-0.25

// query log10 of Ki value for entry CCCc1nc2c(o1)CN[C@@H]1CCc3cc(O)c(O)cc3[C@@H]21 (relative stereo) [Example 53, dihydrobromide]
-0.81

* * *

As shown below, each of these molecules has a reported Intrinsic Activity (%) value.
# Test system: D-1 receptor
# ASSAY_COMMENT: Adenylate cyclase assay (agonist activity, cAMP)
# Assay type: biochemical, goldfish retina or rat striatum
Counter-ions that a name gives are not always drawn.
Provide only the numeric value, understood in %.

Below, each entry is followed by its recorded Intrinsic Activity (%) result.
CCCc1nc2c(o1)CN[C@@H]1CCc3cc(O)c(O)cc3[C@@H]21 (relative stereo) [Example 53, dihydrobromide]; 83
CC(C)c1cc2c(s1)[C@@H]1c3cc(O)c(O)cc3CC[C@H]1NC2 (relative stereo) [Example 34, trifluoroacetate salt]; 80
Oc1cc2c(cc1O)[C@@H]1c3sc(-c4ccccc4)cc3CN[C@H]1CC2 (relative stereo) [Example 19, hydrobromide]; 79
Oc1cc2c(cc1O)[C@H]1c3sc(C(F)(F)F)nc3CN[C@@H]1CC2 (relative stereo) [Example 28]; 77
CC(C)(C)Cc1cc2c(s1)CN[C@H]1CCc3cc(O)c(O)cc3[C@H]21 (relative stereo) [Example 10]; 50

What does the record list as Intrinsic Activity (%) for Oc1cc2c(cc1O)[C@H]1c3cc(CC4CCCC4)sc3CN[C@@H]1CC2 (relative stereo) [Example 39, hydrobromide] ?
93

I would be grateful if you could share the reported Intrinsic Activity (%) for Cc1sc2c(c1C)CN[C@H]1CCc3cc(O)c(O)cc3[C@H]21 (relative stereo) [Example 21, hydrobromide] .
95

* * *

# SYSTEM_TESTED: dopamine D-2 receptor (Rattus norvegicus, UniProt P61169)
# Construct: Homogenized rat caudate was the source of the D-2 receptors; from tissue; host or cells: rat caudate homogenate
# ASSAY_COMMENT: D-2 receptor competitive binding, [3H]-spiroperidol, homogenized rat caudate
# MEASUREMENT_CONTEXT: read-out: D-2 Ki
Counter-ions that a name gives are not always drawn.
READOUT_NAME: Ki (nM)
Please reply with the bare figure in nM and do not write the unit itself.

Record request: Ki value, item Cc1sc2c(c1C)CN[C@H]1CCc3cc(O)c(O)cc3[C@H]21 (relative stereo) [Example 21, hydrobromide]
66
